# test-method-notes: NCI Yeast Anticancer Drug Screen. Data for the rad50 strain (AID 155);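 further: 0% = growth of vehicle-only cultures of the same strain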
# condition-notes: S. cerevisiae rad50 strain growth inhibition; at 5.0 µM (retest, dose inferred, filed as 0.5); hits give high values
The panel holds about 79,000 compounds, 15% with a hit somewhere; the sample as a whole holds those more often.
measurement-label: growth inhibition (%)
Please respond with the number in % and leave the unit unwritten.

COc1ccc(N=NC(C(=O)c2ccccc2)C(=O)c2ccccc2)cc1 ... 29

Requested read-out: growth inhibition. Entry: CN(C)CCOc1cc2c(c3ccccc13)-c1ccccc1C2O (configuration not stated)
30

What value of growth inhibition has been reported for the following compound? CN1C/C(=C\c2ccccc2)C(=O)C(c2ccccc2)C1 (configuration not stated)
-1

// lookup growth inhibition for `CN(C)CCC(=O)c1ccc2c(ccc3ccccc32)c1`
5

Fill in the blank: the reported growth inhibition of C/C=C1\CC(C)(CC)C(C#N)(C#N)C(N)=C1C#N (configuration not stated) is ____.
0

Data request, read-out growth inhibition, for `Cn1c(-c2ccccc2)c(CCNC(=O)C2CCC2)c2ccccc21`
18

Bench note: what growth inhibition did `CC(C)(CC(=O)NNc1ccccc1)C(=O)O` show?
7

What value of growth inhibition has been recorded for this entry: `C(=C1/CNC/C(=C/c2ccccc2)C1)/c1ccccc1`
11

Using the record for O=C(Sc1ccccc1)C1OC12CCCCC2 (configuration not stated) , report its growth inhibition.
-160

// query growth inhibition value for entry `COc1ccc2c(c1)CCn1c(C)c(COC(=O)NC(C)C)c(COC(=O)NC(C)C)c1-2`
17

The reported measurements were obtained from PubChem BioAssay (NCI).
